- assay.notes: Human HepG2 cell viability assay in 384 well format
- Assay type: toxicity, cell-based
- Design: dose 125 nL, time 70.5 hour; concentration not given beside the values
- condition: HepG2 cells, read-out: Inhibition
Entries and their cytotoxicity at 70.5 h
quantity.measured: cytotoxicity at 70.5 h (%)

compound: COc1c(C2CCCN2C(=O)c2c(C)noc2C)c(C)nn1C (centres undefined)
unit.text: %
reported.measurement: -8.08

compound: Cn1cnc(S(=O)(=O)N2CCN(Cc3ccco3)CC2)c1Cl
unit.text: %
reported.measurement: 2.09

compound: Cc1ccsc1-c1nccn1C1CC(=O)N(C(C)C)C1 (centres undefined)
unit.text: %
reported.measurement: -5.72

compound: COC(=O)CNC(=O)CC1COc2ccc(C(=O)N(C)C)cc2N1C (centres undefined)
unit.text: %
reported.measurement: -2.55

---

- assay.notes: Human HepG2 cell viability assay in 384 well format
- Type: toxicity, cell-based
- Parameters: dose 125 nL, time 70.5 hour; concentration not given beside the values
- condition: HepG2 cells, read-out: Inhibition
quantity.measured: cytotoxicity at 70.5 h

molecule: Cc1cccc(NC(=O)C2(n3cnnn3)CCCCC2)n1
quantity.measured: cytotoxicity at 70.5 h
reported.measurement: -26.9%
//
molecule: Cc1ccnn1CC(=O)N1CCN(C2CCc3ccccc3C2)CC1 (stereo not given)
quantity.measured: cytotoxicity at 70.5 h
reported.measurement: 3.04%
//
molecule: COc1cc(CNc2nc(C3CC3)no2)cc(OC)c1OC
quantity.measured: cytotoxicity at 70.5 h
reported.measurement: 6.45%
//
molecule: CC(C)N(C)CC(=O)Nc1ccc(-n2ccc(C(N)=O)n2)cc1
quantity.measured: cytotoxicity at 70.5 h
reported.measurement: -2.55%
//
molecule: CCc1nc(N)sc1C(=O)N1CCC(c2cc(O)nc(C)n2)CC1
quantity.measured: cytotoxicity at 70.5 h
reported.measurement: 20.6%
//
molecule: COc1cccc(CCNCc2c(C)nn(C)c2N(C)C)c1
quantity.measured: cytotoxicity at 70.5 h
reported.measurement: -4.91%
//
molecule: COC(=O)c1cccc(CNC(=O)CCC(F)(F)F)c1
quantity.measured: cytotoxicity at 70.5 h
reported.measurement: -3.83%
//
molecule: Cn1cnc(S(=O)(=O)NCCN2CCCCCC2)c1Cl
quantity.measured: cytotoxicity at 70.5 h
reported.measurement: 4.34%
//
molecule: CN(Cc1cccc2ncccc12)C(=O)CCn1ccc(=O)[nH]c1=O
quantity.measured: cytotoxicity at 70.5 h
reported.measurement: -1.13%
//
molecule: O=C(NC1CCCCC1)NC1CCCc2c1cnn2CCO (stereo not given)
quantity.measured: cytotoxicity at 70.5 h
reported.measurement: -5.64%
//
molecule: Cc1nc(CO[C@@H]2CN(Cc3ccco3)[C@@H]3COC[C@@H]32)cs1
quantity.measured: cytotoxicity at 70.5 h
reported.measurement: -14.3%
//
molecule: Cc1cnn(CCC(=O)N2CCN(C(=O)C(C)C)[C@@H]3CS(=O)(=O)C[C@@H]32)c1
quantity.measured: cytotoxicity at 70.5 h
reported.measurement: -9.72%
//
molecule: O=C(O)c1ccc(=O)n(CC(c2ccc(Cl)cc2)N2CCOCC2)c1 (stereo not given)
quantity.measured: cytotoxicity at 70.5 h
reported.measurement: -6.42%
//
molecule: COc1ncccc1NC(=O)N1CCC(CN2CCOCC2)CC1
quantity.measured: cytotoxicity at 70.5 h
reported.measurement: -6.27%
//
molecule: Cc1ccc(-c2cc(N)c(=O)n(CC(=O)NCC3CCCCC3)n2)s1
quantity.measured: cytotoxicity at 70.5 h
reported.measurement: -16.2%
//
molecule: CN1CCCC2(CCN(S(=O)(=O)c3ccc(-c4cnco4)s3)C2)C1=O (stereo not given)
quantity.measured: cytotoxicity at 70.5 h
reported.measurement: -7.66%
//
molecule: Cc1nc(CN2CCCn3c(nc(Cn4cncn4)cc3=O)C2)cs1
quantity.measured: cytotoxicity at 70.5 h
reported.measurement: 22.5%
//
molecule: c1ccc(C2CN(CCc3ccncc3)CCO2)cc1 (stereo not given)
quantity.measured: cytotoxicity at 70.5 h
reported.measurement: -9.13%
//
molecule: Cc1nc(C(C)C)sc1C(=O)NCCn1nc2ccccn2c1=O
quantity.measured: cytotoxicity at 70.5 h
reported.measurement: -1.52%
//
molecule: CCO[C@@H]1CC[C@H]2[C@H]1OCCN2S(=O)(=O)c1cn(C)cn1
quantity.measured: cytotoxicity at 70.5 h
reported.measurement: -1.5%
//
molecule: CC(C)CNC(=O)Nc1cccc(OCC#N)c1
quantity.measured: cytotoxicity at 70.5 h
reported.measurement: -7.35%
//
molecule: CC(=O)N1CCN(C(=O)C(C)OCC(F)(F)F)CC1 (stereo not given)
quantity.measured: cytotoxicity at 70.5 h
reported.measurement: 33.2%
//
molecule: COCCC(=O)N1CCC(c2nc(O)cc(-c3ccncc3)n2)C1 (stereo not given)
quantity.measured: cytotoxicity at 70.5 h
reported.measurement: -11.8%
//
molecule: Cn1cc(N2CC[C@@H]3CN(Cc4ccncc4)C[C@H]3C2=O)cn1
quantity.measured: cytotoxicity at 70.5 h
reported.measurement: 2.33%
//
molecule: Cc1nn(CCN2CCSCC2)cc1CNCC1CC1
quantity.measured: cytotoxicity at 70.5 h
reported.measurement: -14.6%
//
molecule: CN(C)CCO[C@H]1C[C@@H](O)C12CCN(c1ncccc1Cl)CC2
quantity.measured: cytotoxicity at 70.5 h
reported.measurement: -5.24%
//
molecule: CN(C)C(=O)CNC(=O)c1cc(Br)c2c(c1)OCCO2
quantity.measured: cytotoxicity at 70.5 h
reported.measurement: -3.47%
//
molecule: COc1ccc2c(c1)C(C(=O)NCCN1CCNC1=O)CC(=O)N2 (stereo not given)
quantity.measured: cytotoxicity at 70.5 h
reported.measurement: 16.8%
//
molecule: O=c1cc(CNCc2ccc3c(c2)OCO3)nc2ccccn12
quantity.measured: cytotoxicity at 70.5 h
reported.measurement: -6.34%
//
molecule: O=C(O)c1cc(S(=O)(=O)Nc2ccc(F)c(Cl)c2)cc2c1OCCO2
quantity.measured: cytotoxicity at 70.5 h
reported.measurement: 3.36%
//
molecule: Cc1sc(-c2ccco2)nc1C(=O)NCC1CCOC1 (stereo not given)
quantity.measured: cytotoxicity at 70.5 h
reported.measurement: 1.39%
//
molecule: c1coc(-c2noc(CN3CCc4cncnc4C3)n2)c1
quantity.measured: cytotoxicity at 70.5 h
reported.measurement: -7.56%
//
molecule: CCC[C@H]1CN(S(C)(=O)=O)C[C@@H]1NC(=O)c1ccc(COC)cc1
quantity.measured: cytotoxicity at 70.5 h
reported.measurement: 0.361%
//
molecule: CN1N=C(C(=O)N(Cc2ccco2)C2CC2)CCC1=O
quantity.measured: cytotoxicity at 70.5 h
reported.measurement: -9.82%
//
molecule: Cc1ccc(C2CSCCN2CCS(C)(=O)=O)cc1 (stereo not given)
quantity.measured: cytotoxicity at 70.5 h
reported.measurement: -12.2%
